Values from ChEMBL document CHEMBL1961873

system_name: Serine/threonine-protein kinase PAK 5 (Homo sapiens) (UniProt Q9P286)
Sequence (Q9P286 whole entry, looked up): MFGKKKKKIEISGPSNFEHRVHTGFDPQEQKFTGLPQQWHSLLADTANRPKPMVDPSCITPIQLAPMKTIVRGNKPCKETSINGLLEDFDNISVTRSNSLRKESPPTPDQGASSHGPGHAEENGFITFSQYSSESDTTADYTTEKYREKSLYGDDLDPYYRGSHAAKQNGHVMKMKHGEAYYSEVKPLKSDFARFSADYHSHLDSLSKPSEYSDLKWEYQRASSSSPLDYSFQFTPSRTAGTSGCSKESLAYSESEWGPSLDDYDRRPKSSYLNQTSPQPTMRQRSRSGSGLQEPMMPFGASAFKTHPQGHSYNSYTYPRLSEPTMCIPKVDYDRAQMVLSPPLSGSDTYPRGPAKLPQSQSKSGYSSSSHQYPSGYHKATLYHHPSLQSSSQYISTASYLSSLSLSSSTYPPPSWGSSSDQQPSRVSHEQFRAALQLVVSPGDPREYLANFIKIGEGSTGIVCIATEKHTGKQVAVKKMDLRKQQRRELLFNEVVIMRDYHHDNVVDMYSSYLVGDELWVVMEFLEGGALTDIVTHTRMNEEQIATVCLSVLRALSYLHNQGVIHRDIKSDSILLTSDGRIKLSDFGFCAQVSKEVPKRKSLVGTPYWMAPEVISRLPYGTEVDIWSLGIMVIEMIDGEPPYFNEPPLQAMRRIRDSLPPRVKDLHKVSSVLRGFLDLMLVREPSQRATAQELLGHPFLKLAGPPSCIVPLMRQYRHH
settings: at 1 µM
Description: GSK_PKIS: PAK5 mean inhibition at 1 uM [Nanosyn]
measured_endpoint: inhibition (%)
Report only the number, with the unit % understood.

According to the records, this compound `CCN1CCC(CC(=O)Nc2n[nH]c3nc(-c4cccs4)c(Br)cc23)CC1` displays inhibition of 16.4

inhibition reported for this compound `NC(=O)c1ccc(-c2nc(-c3ccccn3)c(-c3ccc4c(c3)OCO4)[nH]2)cc1` : -0.72

Kindly note the recorded inhibition for `CN1CCC(C(=O)Nc2n[nH]c3nnc(-c4ccccc4)cc23)CC1` , which is 6.52

Kindly note the recorded inhibition for `Nc1ncnc2occ(-c3ccc(NC(=O)Nc4cc(C(F)(F)F)cc(C(F)(F)F)c4)cc3)c12` , which is 4.07

# inhibition of `c1cnn2ncc(-c3ccnc(Nc4ccc5c(c4)OCCO5)n3)c2c1` = 14.7

Note to self: inhibition recorded for `COc1ccc(-c2coc3ncnc(N)c23)cc1` was -5.35

`O=C1Nc2ccc(C(=O)c3ccco3)cc2C1=Cc1cc(Cl)c(O)c(Cl)c1` yielded inhibition of 5.07

====

Consider the following compounds and their measured inhibition readings.
system_name: Protein-tyrosine kinase 6 (Homo sapiens)
settings: at 1 µM
Description: GSK_PKIS: BRK mean inhibition at 1 uM [Nanosyn]
Write the answer as a number in %, unit excluded.

Use these answered entries as a reference point.
# compound, reported_value
measured = [
    ("COc1cccc(-n2ncc3c(N/N=C/c4cccc(F)c4)ncnc32)c1", 5.33),
    ("NCc1ccc(-c2nc(-c3ccc(Cl)c(O)c3)c(-c3ccncc3)[nH]2)cc1", 58.7),
    ("CC(C)=Cc1cccc2c1/C(=N/Nc1ccc(S(N)(=O)=O)cc1)C(=O)N2", -1.64),
]

The compound listed as `Fc1cccc(COc2ccc(Nc3ncnc4cc(-c5ccc[nH]5)sc34)cc2Cl)c1` has a reported inhibition of 6.36

inhibition measured on `Nc1nc(-c2ccc3c(c2)C(=Cc2cc(Br)c(O)c(Br)c2)C(=O)N3)cs1` = 0.1

Noted for CC1=C(C(=O)Nc2ccc3[nH]ncc3c2)C(c2ccc3ccccc3c2)CC(=O)N1 (stereo not given) : its inhibition reads 6.55

Notebook: `O=C1NC(=O)C(c2ccccc2Cl)=C1Nc1cccc(O)c1` , inhibition read as 2.79

The value of inhibition measured for the compound `O=C(Nc1n[nH]c2nc(-c3ccco3)c(Br)cc12)C1CC1` turned out to be 3.67

Looking up `CCCN1CCC(Oc2cc(Nc3nc(Nc4cccc(F)c4C(N)=O)c4cc[nH]c4n3)c(OC)cc2Cl)CC1` , I see its inhibition listed as 14.8

The recorded inhibition for `COc1ccc(COc2ccc(Cc3cnc(N)nc3N)cc2OC)cc1` is -1.6

The compound listed as `CN1CCC(C(=O)Nc2n[nH]c3nnc(-c4ccccc4)cc23)CC1` has a reported inhibition of 6.78

inhibition reported for this compound `COc1cc2c(cc1Nc1nc(N3CCc4ccccc43)c3cc[nH]c3n1)N(C(=O)CN(C)C)CC2` : 0.03

Item: `COc1cc2ncn(-c3cc(O[C@@H](C)c4ccccc4Cl)c(C(N)=O)s3)c2cc1OC` | inhibition: 7.91

====

system_name: Testis-specific serine/threonine-protein kinase 1 (Homo sapiens);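 further: reported value is the mean inhibition, from the GSK PKIS kinase screening panel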
Sequence (whole entry): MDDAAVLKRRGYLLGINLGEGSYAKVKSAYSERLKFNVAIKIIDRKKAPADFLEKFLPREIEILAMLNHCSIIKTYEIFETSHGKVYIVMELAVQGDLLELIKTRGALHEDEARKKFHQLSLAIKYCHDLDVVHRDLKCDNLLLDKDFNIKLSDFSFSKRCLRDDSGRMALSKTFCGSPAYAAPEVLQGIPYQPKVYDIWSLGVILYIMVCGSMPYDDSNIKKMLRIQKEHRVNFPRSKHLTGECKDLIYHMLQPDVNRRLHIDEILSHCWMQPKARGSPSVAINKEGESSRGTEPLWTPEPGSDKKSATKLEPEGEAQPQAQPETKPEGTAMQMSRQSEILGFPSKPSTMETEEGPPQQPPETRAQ
settings: at 1 µM
measured_endpoint: inhibition (%)
The reply should contain only the number, in %.

What the record says about `O=C1NC(=O)C(c2cccc(Cl)c2)=C1Nc1ccc(O)c(Cl)c1` : inhibition is 1.63

Measured inhibition, `Cc1ccc(NC(=O)c2ccnc(N3CCCC3)c2)cc1-c1ccc(C(=O)NCC2CC2)cc1` : 3.59

`CNC(=O)c1cncc(/C=C/c2c(Cl)cccc2Cl)c1` yielded inhibition of 4.44

`NCc1ccc(-c2nc(-c3ccc(Cl)c(O)c3)c(-c3ccncc3)[nH]2)cc1` yielded inhibition of 0.46

The value of inhibition measured for the compound `NS(=O)(=O)c1cccc(-c2ccc3c(NC(=O)C4CC4)n[nH]c3c2)c1` turned out to be -0.47

====

system_name: Tyrosine-protein kinase CSK (Homo sapiens);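 further: value given is the averaged percent inhibition of CSK kinase activity, from the GSK PKIS kinase inhibitor set screening panel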
settings: at 0.1 µM
Overview of reported inhibition across a group of compounds:

# compound_smiles, reported_value
measured = [
    ("COc1cc(C)c(NC(=O)CN(C)C)cc1Nc1nc(Nc2cccc(F)c2C(N)=O)c2cc[nH]c2n1", "1.05%"),
    ("Nc1ncnc2occ(-c3ccc(NC(=O)Nc4cc(C(F)(F)F)cc(C(F)(F)F)c4)cc3)c12", "3.53%"),
    ("O=C(Nc1n[nH]c2nc(-c3ccco3)c(Br)cc12)C1CC1", "6.94%"),
    ("N#Cc1c(NC(=O)c2cccc3ccccc23)sc2c1CCCC2", "0.06%"),
    ("CCn1c(-c2nonc2N)nc2c(N3CCCC3)nccc21", "-7.4%"),
]

For reference, reported inhibition for `COc1cc2ncn(-c3cc(O[C@@H](C)c4ccccc4Cl)c(C(N)=O)s3)c2cc1OC` stands at 1.7%

Entry `COc1ccc(-c2nn3ncccc3c2-c2ccnc(Nc3ccc(Cl)c(C(F)(F)F)c3)n2)cc1` , inhibition reported as -0.37%

# inhibition (compound: `CCn1c(-c2nonc2N)nc2cnc(Oc3cccc(NC(=O)c4ccc(OCCN5CCOCC5)cc4)c3)cc21` ) is 2.95%

The value of inhibition measured for the compound `Nc1ncnc2occ(-c3ccc(NC(=O)Nc4cccc(C(F)(F)F)c4)cc3)c12` turned out to be 7.62%

Value of measured inhibition for the entry `CCn1c(-c2nonc2N)nc2cncc(C(=O)N3CC[C@H](N)C3)c21` : 5.91%

The reported value for `COc1cc2ncn(-c3cc(OCc4ccccc4C(F)(F)F)c(C(N)=O)s3)c2cc1OC` in terms of inhibition is 3.11%

`NC(=O)c1ccc(-c2nc(-c3ccccn3)c(-c3ccc4c(c3)OCO4)[nH]2)cc1` has a reported inhibition of 5.75%

====

Quick reference: inhibition of the listed items.
Test system: Leucine-rich repeat serine/threonine-protein kinase 2 (Homo sapiens), Q5S007 [G2019S]
Sequence (Q5S007 whole entry G2019S): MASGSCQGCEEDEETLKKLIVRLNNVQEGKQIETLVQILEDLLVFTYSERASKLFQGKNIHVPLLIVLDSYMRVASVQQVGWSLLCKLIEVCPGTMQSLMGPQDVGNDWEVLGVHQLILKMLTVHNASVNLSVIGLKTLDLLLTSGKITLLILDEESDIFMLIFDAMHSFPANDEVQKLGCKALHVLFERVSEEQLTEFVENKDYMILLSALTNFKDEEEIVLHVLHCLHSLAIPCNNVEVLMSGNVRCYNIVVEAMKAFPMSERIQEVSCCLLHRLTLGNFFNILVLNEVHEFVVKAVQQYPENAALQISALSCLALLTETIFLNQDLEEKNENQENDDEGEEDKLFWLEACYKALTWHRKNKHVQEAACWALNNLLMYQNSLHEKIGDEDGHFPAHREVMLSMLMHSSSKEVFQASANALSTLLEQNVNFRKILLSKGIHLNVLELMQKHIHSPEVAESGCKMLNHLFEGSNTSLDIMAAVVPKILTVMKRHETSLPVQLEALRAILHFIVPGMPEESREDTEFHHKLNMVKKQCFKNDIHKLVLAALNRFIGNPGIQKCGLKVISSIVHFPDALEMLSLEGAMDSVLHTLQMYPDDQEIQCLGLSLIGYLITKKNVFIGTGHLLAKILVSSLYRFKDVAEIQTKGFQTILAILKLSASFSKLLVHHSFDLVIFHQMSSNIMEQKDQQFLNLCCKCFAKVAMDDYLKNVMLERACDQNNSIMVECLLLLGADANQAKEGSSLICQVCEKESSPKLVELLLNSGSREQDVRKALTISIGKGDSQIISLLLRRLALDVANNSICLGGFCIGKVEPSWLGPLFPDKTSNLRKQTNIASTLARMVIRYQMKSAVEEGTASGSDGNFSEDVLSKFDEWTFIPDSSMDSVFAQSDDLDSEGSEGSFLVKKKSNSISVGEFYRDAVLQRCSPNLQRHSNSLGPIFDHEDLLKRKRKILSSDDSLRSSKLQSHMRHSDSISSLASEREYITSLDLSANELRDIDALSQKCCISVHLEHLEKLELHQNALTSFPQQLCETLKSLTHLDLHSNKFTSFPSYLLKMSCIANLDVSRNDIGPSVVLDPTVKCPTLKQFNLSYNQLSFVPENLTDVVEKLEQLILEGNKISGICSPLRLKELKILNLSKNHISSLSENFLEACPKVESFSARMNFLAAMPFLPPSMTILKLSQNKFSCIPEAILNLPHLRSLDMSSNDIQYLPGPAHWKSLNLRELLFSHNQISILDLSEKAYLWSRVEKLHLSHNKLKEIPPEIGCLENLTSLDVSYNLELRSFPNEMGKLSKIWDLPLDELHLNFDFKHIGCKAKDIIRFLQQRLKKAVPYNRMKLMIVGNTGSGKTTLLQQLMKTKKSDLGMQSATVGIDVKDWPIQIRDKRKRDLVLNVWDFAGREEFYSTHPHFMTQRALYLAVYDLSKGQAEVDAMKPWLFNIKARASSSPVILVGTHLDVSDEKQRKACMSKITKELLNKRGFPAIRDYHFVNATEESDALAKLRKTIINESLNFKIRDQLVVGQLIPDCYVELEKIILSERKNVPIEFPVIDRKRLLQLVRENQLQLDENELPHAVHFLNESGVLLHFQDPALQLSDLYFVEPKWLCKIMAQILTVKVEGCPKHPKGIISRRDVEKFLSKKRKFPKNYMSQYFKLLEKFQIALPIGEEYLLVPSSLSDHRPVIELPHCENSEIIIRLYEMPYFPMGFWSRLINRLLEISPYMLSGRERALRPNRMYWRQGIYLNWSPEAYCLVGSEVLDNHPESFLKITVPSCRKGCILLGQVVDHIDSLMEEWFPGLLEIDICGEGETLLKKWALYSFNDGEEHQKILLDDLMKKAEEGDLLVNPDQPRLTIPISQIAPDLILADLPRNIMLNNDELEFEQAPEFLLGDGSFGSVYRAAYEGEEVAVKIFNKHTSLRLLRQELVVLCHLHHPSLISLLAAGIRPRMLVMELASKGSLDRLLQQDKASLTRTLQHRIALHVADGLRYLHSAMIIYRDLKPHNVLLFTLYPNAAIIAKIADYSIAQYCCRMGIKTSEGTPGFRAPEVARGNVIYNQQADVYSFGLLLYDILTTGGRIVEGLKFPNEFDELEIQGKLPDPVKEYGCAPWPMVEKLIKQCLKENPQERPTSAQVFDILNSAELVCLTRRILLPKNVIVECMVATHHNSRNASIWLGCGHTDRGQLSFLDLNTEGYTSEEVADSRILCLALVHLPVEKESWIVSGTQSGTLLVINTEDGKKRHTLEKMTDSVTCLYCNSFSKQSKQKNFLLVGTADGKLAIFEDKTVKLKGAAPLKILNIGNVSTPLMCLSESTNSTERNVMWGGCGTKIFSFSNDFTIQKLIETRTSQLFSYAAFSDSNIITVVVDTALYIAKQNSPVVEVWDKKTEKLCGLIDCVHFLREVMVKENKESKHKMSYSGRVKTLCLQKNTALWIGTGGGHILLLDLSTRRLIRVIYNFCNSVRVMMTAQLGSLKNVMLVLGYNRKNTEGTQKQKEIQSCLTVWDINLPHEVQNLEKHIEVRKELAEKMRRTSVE
settings: at 0.1 µM
The reply should contain only the number, in %.

The compound listed as `Nc1ncnc2occ(-c3ccc(NC(=O)Nc4cc(C(F)(F)F)cc(C(F)(F)F)c4)cc3)c12` has a reported inhibition of 4.56

Form field inhibition, entry `CCc1cccc(NC(=O)Nc2ccc(Oc3ccc4nc(NC(=O)OC)[nH]c4c3)cc2)c1` : 5.51

get_value(item= `O=C1NC(=O)C(c2cccc(Cl)c2)=C1Nc1ccc(O)c(Cl)c1` , readout=inhibition) returns 4.28

Data point: `Nc1nc(-c2ccc3c(c2)C(=Cc2cc(Br)c(O)c(Br)c2)C(=O)N3)cs1` ; inhibition = 10.3

What the record says about `CCN1CCC(CC(=O)Nc2n[nH]c3nc(-c4cccs4)c(Br)cc23)CC1` : inhibition is 0.89

====

system_name: Vascular endothelial growth factor receptor 2 (Homo sapiens) (UniProt P35968)
Sequence (P35968 whole entry): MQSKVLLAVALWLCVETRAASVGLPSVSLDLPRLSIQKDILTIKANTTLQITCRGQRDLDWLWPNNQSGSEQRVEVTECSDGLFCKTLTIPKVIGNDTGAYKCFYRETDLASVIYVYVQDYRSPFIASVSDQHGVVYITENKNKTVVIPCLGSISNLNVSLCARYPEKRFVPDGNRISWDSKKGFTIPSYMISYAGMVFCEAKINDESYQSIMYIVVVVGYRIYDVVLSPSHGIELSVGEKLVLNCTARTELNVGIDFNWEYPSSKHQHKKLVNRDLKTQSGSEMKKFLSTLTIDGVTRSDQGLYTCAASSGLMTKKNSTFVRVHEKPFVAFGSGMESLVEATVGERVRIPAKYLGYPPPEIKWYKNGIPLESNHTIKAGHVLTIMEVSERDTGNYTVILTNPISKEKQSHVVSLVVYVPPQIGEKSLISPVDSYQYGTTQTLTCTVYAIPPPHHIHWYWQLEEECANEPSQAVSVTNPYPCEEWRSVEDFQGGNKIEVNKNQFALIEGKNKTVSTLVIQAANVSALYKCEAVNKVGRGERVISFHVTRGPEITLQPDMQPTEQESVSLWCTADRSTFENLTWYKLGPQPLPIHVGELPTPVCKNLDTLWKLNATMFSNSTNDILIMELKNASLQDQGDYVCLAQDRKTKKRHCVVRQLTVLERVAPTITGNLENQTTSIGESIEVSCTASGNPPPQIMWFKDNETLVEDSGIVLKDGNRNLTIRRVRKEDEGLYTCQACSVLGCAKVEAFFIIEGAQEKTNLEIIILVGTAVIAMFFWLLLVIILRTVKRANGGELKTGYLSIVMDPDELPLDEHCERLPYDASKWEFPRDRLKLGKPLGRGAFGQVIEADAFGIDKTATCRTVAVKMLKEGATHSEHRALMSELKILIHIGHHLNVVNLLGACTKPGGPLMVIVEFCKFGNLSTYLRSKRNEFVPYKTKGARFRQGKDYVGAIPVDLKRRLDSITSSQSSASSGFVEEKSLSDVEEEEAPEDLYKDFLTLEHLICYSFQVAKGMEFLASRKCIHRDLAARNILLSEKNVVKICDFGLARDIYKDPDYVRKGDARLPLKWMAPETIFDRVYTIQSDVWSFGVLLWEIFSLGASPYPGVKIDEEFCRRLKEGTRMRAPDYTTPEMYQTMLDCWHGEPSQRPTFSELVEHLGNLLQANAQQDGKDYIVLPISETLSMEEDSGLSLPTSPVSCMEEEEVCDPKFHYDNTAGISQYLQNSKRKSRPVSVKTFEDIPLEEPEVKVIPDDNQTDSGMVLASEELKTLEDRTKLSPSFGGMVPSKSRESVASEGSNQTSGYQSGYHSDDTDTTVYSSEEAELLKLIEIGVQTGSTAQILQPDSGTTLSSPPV
settings: at 0.1 µM
Description: GSK_PKIS: KDR mean inhibition at 0.1 uM [Nanosyn]
measured_endpoint: inhibition (%)
Return type: number; implicit unit %.

# compound_smiles, readout_units, inhibition
measured = [
    ("CN1CCC(C(=O)Nc2n[nH]c3nnc(-c4ccccc4)cc23)CC1", "%", 2.34),
    ("Fc1cccc(COc2ccc(Nc3ncnc4sc(-c5cccs5)cc34)cc2Cl)c1", "%", 4.41),
    ("Nc1ncnc2occ(-c3ccc(NC(=O)Nc4cccc(C(F)(F)F)c4)cc3)c12", "%", 73.5),
    ("[O-][S+]1CCN(Cc2ccc(-c3ccc4ncnc(Nc5ccc(OCc6ccccc6)c(F)c5)c4c3)o2)CC1", "%", 2.98),
    ("Nc1nc(-c2ccc3c(c2)C(=Cc2cc(Br)c(O)c(Br)c2)C(=O)N3)cs1", "%", 1.8),
]

Reported inhibition for `COc1ccc(-c2ccncc2)cc1C(N)=O` was 2.67

Lab book: inhibition of `CCn1c(-c2nonc2N)nc2cnc(Oc3cccc(NC(=O)c4ccc(OCCN5CCOCC5)cc4)c3)cc21` noted as 5.67

For this molecule ( `Cc1ccc(NC(=O)c2ccnc(N3CCCC3)c2)cc1-c1ccc(C(=O)NCC2CC2)cc1` ), measured inhibition is 9.55

// recorded inhibition for `COc1ccc(-c2coc3ncnc(N)c23)cc1` : 6.15

Recorded result, `c1cnn2ncc(-c3ccnc(Nc4ccc5c(c4)OCCO5)n3)c2c1` , inhibition: 9.54

Please fill in: inhibition reported for `CCn1c(-c2nonc2N)nc2c(N3CCCC3)nccc21` = 1.32

Kindly note the recorded inhibition for `COc1cccc(-n2ncc3c(N/N=C/c4cccc(F)c4)ncnc32)c1` , which is 10.1
